# credit: ChEMBL document CHEMBL1138970

- Tested on: Human immunodeficiency virus 1
- ASSAY: Antiviral activity against HIV1 in MT4 cells
- Type: functional, organism-based
- CONDITION SUMMARY: Human immunodeficiency virus 1, MT4
Would you kindly list pEC50 for each of these compounds?
Answers are plain numbers, as −log10 of the molar value.

A selection of reference data follows.
COC(=O)C(=O)NC1=CS(=O)(=O)O[C@@]12[C@@H](COCc1ccccc1)O[C@@H](n1cc(C)c(=O)n(C)c1=O)[C@@H]2O[Si](C)(C)C(C)(C)C :: 5.35
Cc1cn([C@@H]2O[C@H](CO[Si](C)(C)C(C)(C)C)[C@@]3(OS(=O)(=O)C=C3N)[C@H]2O[Si](C)(C)C(C)(C)C)c(=O)n(CC(=O)O)c1=O :: 5.21
Cc1cn([C@@H]2O[C@H](CO[Si](C)(C)C(C)(C)C)[C@@]3(OS(=O)(=O)C(I)=C3N)[C@H]2O[Si](C)(C)C(C)(C)C)c(=O)[nH]c1=O :: 6.92
CC(C)(C)[Si](C)(C)OC[C@H]1O[C@@H](n2nncc2C(N)=O)[C@H](O[Si](C)(C)C(C)(C)C)[C@]12OS(=O)(=O)C=C2N :: 6.28
Cc1cn([C@@H]2O[C@H](CO[Si](C)(C)C(C)(C)C)[C@@]3(OS(=O)(=O)C=C3N)[C@H]2O[Si](C)(C)C(C)(C)C)c(=O)n(CCCN(CC(=O)O)CC(=O)O)c1=O :: 5.08
Cc1cn(C2OC(CO[Si](C)(C)C(C)(C)C)CC2O[Si](C)(C)C(C)(C)C)c(=O)n(CC(=O)O)c1=O (stereo unspecified) :: 5.19
Cc1cn([C@@H]2O[C@H](CO[Si](C)(C)C(C)(C)C)[C@@]3(OS(=O)(=O)C=C3N)[C@H]2O[Si](C)(C)C(C)(C)C)c(=O)n(C)c1=O :: 7.22
CCc1cn([C@@H]2O[C@H](CO[Si](C)(C)C(C)(C)C)[C@@]3(OS(=O)(=O)C=C3N)[C@H]2O[Si](C)(C)C(C)(C)C)c(=O)[nH]c1=O :: 7.22
Cc1cn([C@@H]2O[C@H](CO[Si](C)(C)C(C)(C)C)[C@@]3(OS(=O)(=O)C=C3N)[C@H]2O[Si](C)(C)C(C)(C)C)c(=O)[nH]c1=O :: 7.22
Cc1cn([C@@H]2O[C@H](CO[Si](C)(C)C(C)(C)C)[C@@H](O)[C@H]2O[Si](C)(C)C(C)(C)C)c(=O)n(CC(=O)O)c1=O :: 5.27

Return reported pEC50 values for all items listed beneath this line.
1. CCCn1c(=O)c(C)cn([C@@H]2O[C@H](CO[Si](C)(C)C(C)(C)C)[C@@]3(OS(=O)(=O)C=C3N)[C@H]2O[Si](C)(C)C(C)(C)C)c1=O
2. Cc1cn([C@@H]2O[C@H](CO[Si](C)(C)C(C)(C)C)[C@@]3(OS(=O)(=O)C=C3N)[C@H]2O[Si](C)(C)C(C)(C)C)c(=O)n(CC(=O)N[C@@H](CC(=O)O)C(=O)O)c1=O
3. Cc1cn([C@@H]2O[C@H](CO[Si](C)(C)C(C)(C)C)[C@@]3(OS(=O)(=O)C=C3N)[C@H]2O[Si](C)(C)C(C)(C)C)c(=O)n(CCCN)c1=O
4. Cc1cn([C@@H]2O[C@H](CO[Si](C)(C)C(C)(C)C)[C@@]3(OS(=O)(=O)C=C3N)[C@H]2O[Si](C)(C)C(C)(C)C)c(=O)n(CC2CO2)c1=O (stereo partly specified)
5. CNC(=O)CCCCn1c(=O)c(C)cn([C@@H]2O[C@H](CO[Si](C)(C)C(C)(C)C)[C@@]3(OS(=O)(=O)C=C3N)[C@H]2O[Si](C)(C)C(C)(C)C)c1=O
6. Cc1cn([C@@H]2O[C@H](CO[Si](C)(C)C(C)(C)C)[C@@]3(OS(=O)(=O)C(/C=C/CO)=C3N)[C@H]2O[Si](C)(C)C(C)(C)C)c(=O)[nH]c1=O
7. Cc1cn([C@@H]2O[C@H](CO[Si](C)(C)C(C)(C)C)[C@@]3(OS(=O)(=O)C=C3N)[C@H]2O[Si](C)(C)C(C)(C)C)c(=O)n(/C=C/CO)c1=O

Output:
1. 6.59
2. 5.20
3. 6.28
4. 6.96
5. 7.30
6. 5.18
7. 7.40

Consider the following items and state reported pEC50 for each.
1. CN(C)C(=O)c1cnnn1[C@@H]1O[C@H](CO[Si](C)(C)C(C)(C)C)[C@@]2(OS(=O)(=O)C=C2N)[C@H]1O[Si](C)(C)C(C)(C)C
2. Cc1cn([C@@H]2O[C@H](CO[Si](C)(C)C(C)(C)C)[C@@]3(OS(=O)(=O)C=C3N=C(N)N)[C@H]2O[Si](C)(C)C(C)(C)C)c(=O)[nH]c1=O

Output:
1. 7.40
2. 6.02

Report pEC50 for each item below.
1. Cc1cn([C@@H]2O[C@H](CO[Si](C)(C)C(C)(C)C)[C@@]3(OS(=O)(=O)C=C3N)[C@H]2O[Si](C)(C)C(C)(C)C)c(=O)n(CC(N)=O)c1=O
2. Cc1cn([C@@H]2O[C@H](CO[Si](C)(C)C(C)(C)C)[C@@]3(OS(=O)(=O)C=C3N)[C@H]2O[Si](C)(C)C(C)(C)C)c(=O)n(/C=C\CO)c1=O

Output:
[7.15, 6.49]
